Reference source: patent US20190367616A1

# Test System: T1, cynomolgus PD-1 ECD (Acro Biosystems cat. no. PD1-05223) (cynomolgus, UniProt B0LAJ3 25-170)
# T1 construct: Bought monomeric ECD; not shown: any purification tag of the vendor's product (Acro Biosystems PD1-05223, probably a His tag)
# T1 sequence (B0LAJ3 entry or part of it limits assumed): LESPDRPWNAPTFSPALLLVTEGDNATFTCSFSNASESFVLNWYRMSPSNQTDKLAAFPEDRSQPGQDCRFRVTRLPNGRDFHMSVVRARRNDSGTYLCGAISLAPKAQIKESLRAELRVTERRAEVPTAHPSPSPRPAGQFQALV
# Assay Comment: SPR, antibody on sensor, monomeric PD-1 ECD in solution
Listed here: items and their measured koff.
Reported Property: koff

[[record]]
binder = "antibody 18098 (antibody, V domains shown, Tested as human IgG1 L234A/L235A (LALA), kappa) VH: QVQLQESGGGLVRPGGSLRLSCAASGFTFSSFAMNWVRQAPGKGLVWVSTITGGGTTSYYADSVKGRFTISRDNSKSTLFLQMNSLRAEDTAVYYCAKWGSWSAGAFDIWGQGTTVTVSS VL: DIQLTQSPSSVSASVGDRVTITCRASQGISSWLAWYQQKPGKAPKLLIYAASSLQSGVPSRFSGSGSGTDFTLTISSLQPEDFATYYCQQANSFPWTFGQGTKVEIKR"
assay_result = "0.0013 s⁻¹"

[[record]]
binder = "antibody 18049 (antibody, V domains shown, Tested as human IgG1 L234A/L235A (LALA), kappa) VH: QVQLVESGGGVVQPGRSLRLSCAASGFTFSNYGMHWVRQAPGKGLEWVAVIWYDGSDKYYADSVKGRFTISRDNSKNTLYLQMNSLRAEDTAVYYCAGGGNYYGDFWGQGTLVTVSS VL: EIVMTQSPSSLSASVGDRVTITCRASQGIRNDLGWYQQKPGKAPKRLIYVASNLQSGVPSRFSGSGSGTEFTLTISSLQPEDFATYYCLQYNSYPWTFGQGTKVEIKR"
assay_result = "8e-05 s⁻¹"

[[record]]
binder = "antibody 18400 (antibody, V domains shown, Tested as human IgG1 L234A/L235A (LALA), kappa) VH: QLQLQESGPGLVKPSGTLSLTCAVSGGSISSSNWWSWVRQPPKKGLEWVGEIFHDGTTSYNPSLKSRVTMSVDKSKNQFSLKLSSVTAADTAVYYCARGNWGSGALDIWGPGTMVTVSS VL: EIVMTQSPSPLSASVGDRVTITCRASQGIRNDLGWYQQKPGKAPKLLIYAASSLQSGVPSRFSGSGSGTDFTLTISSLQPEDFATYYCLQDYNYPRTFGQGTKVEIKR"
assay_result = "0.00087 s⁻¹"

